system: CP256; assay: qHTS profiling for inhibitors of Plasmodium falciparum proliferation (AID 504749); further: nearly all actives have a fitted effect of over 60% in size; details: P. falciparum in erythrocytes, SYBR Green DNA, 72 h; series mostly up to 28.7 µM
Inconclusive results are not listed. Activity calls are given as the source filed them. The call rests on the fitted dose curve; in most records, active means well fitted inhibition curve with a large enough effect; inconclusive means small, poorly fitted or top-dose-only effect; inactive means flat fitted curve, though single readings scatter.
Choose one outcome from this list and give only that: active, inactive

Field: example entries. Status: answers known.
- compound: "C=C1C(=O)O[C@@H]2[C@@H]1CC/C(C)=C\\CC[C@@]1(C)O[C@H]21"
  label: "inactive"
- compound: "COc1ccc(C(=O)/C(Br)=C/C(=O)O)cc1"
  label: "inactive"
- compound: "Cc1cc2nc3c(=O)[nH]c(=O)nc-3n(CC(O)C(O)C(O)COP(=O)(O)O)c2cc1C (stereo not drawn)"
  label: "inactive"
- compound: "CC1CN(c2c(F)c(N)c3c(=O)c(C(=O)O)cn(C4CC4)c3c2F)CC(C)N1 (stereo not drawn)"
  label: "inactive"
- compound: "CC[C@@]1(O)C[C@H](O[C@H]2C[C@@H](N(C)C)[C@@H](O[C@H]3C[C@@H](O)[C@@H](O[C@H]4CCC(=O)[C@@H](C)O4)[C@@H](C)O3)[C@@H](C)O2)c2c(cc3c(c2O)C(=O)c2c(O)cccc2C3=O)[C@H]1C(=O)OC"
  label: "active"
- compound: "OCC1O[C@H](Oc2ccc(O)cc2)C(O)C(O)C1O (stereo partly drawn)"
  label: "inactive"

Task: Record request — test call for CC(C)(C)NC[C@H](O)CSc1nc(-c2ccc(C(N)=O)s2)cs1
Output: inactive

Task: Record request — test call for C=NC(C(=O)NC1C(=O)N2C1SC(C)(C)C2C(=O)O)c1ccccc1 (stereo not drawn)
Output: inactive
